System: OVCAR-3
Measurement protocol: NCI tumour cell line growth inhibition, 48 h
Activity calls are given as the source filed them. Cut-off read from the data, not from the text of the source: active = GI50 up to about 1.1 µM and inactive = higher.
GI50 values, listed per item

// solved cases for GI50 follow
# Molecule, GI50
measured = [
    ("Cc1ccc(C(=O)N/N=C(\\N=N\\c2ccccc2)c2ccc(N(CCC#N)CCC#N)cc2C)cc1", "39.2 µM (inactive)"),
    ("[O-]/N=[N+](/[O-])C1CCCCC1=[N+]1CCOCC1 (stereo not given)", "> 100 µM (inactive)"),
    ("O=S1OC2(c3ccccc3-c3ccccc32)c2ccccc21 (stereo not given)", "> 100 µM (inactive)"),
    ("Nc1nc(Cl)cc(NC2(CO)CCC2)n1", "> 100 µM (inactive)"),
]

Reported GI50 for `CSc1c(C#N)c(O)n(-c2ccc(C)cc2)c(=O)c1C#N` : what is it? > 100 µM (inactive)
